experiment: Pharmacokinetic analysis of T1-1 as a prodrug of MRS5474: plasma PK in mice after i.v. and p.o. dosing; assay type: in vivo, Male CD-1 mice; details: male, mouse; IV(plasma), T1-1 dosed 1.35 mg/kg, CD-1 mice; analyte = label

| molecule | AUC(0-t) [ng·h/mL] |
| --- | --- |
| O=C(NCN(c1nc(Cl)nc2c1ncn2[C@H]1[C@H](O)[C@H](O)[C@@H]2C[C@@H]21)C(C1CC1)C1CC1)c1ccccc1 [Compound T1-1] | 391 |
| O[C@@H]1[C@H](O)[C@@H]2C[C@@H]2[C@H]1n1cnc2c(NC(C3CC3)C3CC3)nc(Cl)nc21 [MRS5474, reference compound] | 313 |

----------
Test: Pharmacokinetic analysis of T1-1 as a prodrug of MRS5474: plasma PK in mice after i.v. and p.o. dosing
Type: in vivo, Male CD-1 mice
Conditions: male, mouse; IV(plasma), T1-1 dosed 1.35 mg/kg, CD-1 mice; analyte = label; read-out: MRTInf_obs
Procedure: Pharmacokinetic Analysis of Compound T1-1 for Determination Utility as a Prodrug of MRS5474: […] The desired serial concentrations of working solutions were achieved by diluting a stock solution of the analyte with 50% acetonitiile in water solution. […] The data were analyzed for test article T1-1 and the metabolite (parent compound) MRA5474 for PK profile. […]

| molecule | output unit | MRT inf |
| --- | --- | --- |
| O=C(NCN(c1nc(Cl)nc2c1ncn2[C@H]1[C@H](O)[C@H](O)[C@@H]2C[C@@H]21)C(C1CC1)C1CC1)c1ccccc1 | h | 0.46 |
| O[C@@H]1[C@H](O)[C@@H]2C[C@@H]2[C@H]1n1cnc2c(NC(C3CC3)C3CC3)nc(Cl)nc21 [MRS5474, reference compound] | h | 2.32 |

----------
Listed below: AUC(0-inf) values for each entry.
assay: Pharmacokinetic analysis of T1-1 as a prodrug of MRS5474: plasma PK in mice after i.v. and p.o. dosing; assay type: in vivo, Male CD-1 mice; details: male, mouse; IV(plasma), T1-1 dosed 1.35 mg/kg, CD-1 mice; analyte = label

| compound | AUC(0-inf) (ng·h/mL) |
| --- | --- |
| O[C@@H]1[C@H](O)[C@@H]2C[C@@H]2[C@H]1n1cnc2c(NC(C3CC3)C3CC3)nc(Cl)nc21 [MRS5474, reference compound] | 321 |
| O=C(NCN(c1nc(Cl)nc2c1ncn2[C@H]1[C@H](O)[C@H](O)[C@@H]2C[C@@H]21)C(C1CC1)C1CC1)c1ccccc1 | 395 |

----------
experiment: Pharmacokinetic analysis of T1-1 as a prodrug of MRS5474: plasma PK in mice after i.v. and p.o. dosing; assay type: in vivo, Male CD-1 mice; conditions: male, mouse; IV(plasma), T1-1 dosed 1.35 mg/kg, CD-1 mice; analyte = label (T1-1 or metabolite MRS5474)
reported endpoint: half-life (min)

| compound | reported endpoint | measured result |
| --- | --- | --- |
| O[C@@H]1[C@H](O)[C@@H]2C[C@@H]2[C@H]1n1cnc2c(NC(C3CC3)C3CC3)nc(Cl)nc21 [MRS5474, reference compound] | half-life | 93 |
| O=C(NCN(c1nc(Cl)nc2c1ncn2[C@H]1[C@H](O)[C@H](O)[C@@H]2C[C@@H]21)C(C1CC1)C1CC1)c1ccccc1 | half-life | 17.4 |
